Each record here notes measured self-aminoacylation.
# Tested on: biotinyl-Trp-oxazolone
# test method notes: self-aminoacylation, catalytic enhancement (BWO) (fold over background); higher = more active; k-Seq, kA / k0A0; sequences stand for … in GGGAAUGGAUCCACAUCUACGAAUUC…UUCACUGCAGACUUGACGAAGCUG
Fewer inactive variants are shown than the library holds.
Please give the numeric answer without any surrounding text.

seq text: UCACACUUCCAGCAAUCGGUC [Fam1B.1 aminoacylation ribozyme variant]
reported metric: self-aminoacylation
quantitative readout: 0.854

Kindly indicate its recorded self-aminoacylation. Item: AGUCACCUAGGUCACCGGGUG [Fam2.2 aminoacylation ribozyme variant] 6.49

Kindly indicate its recorded self-aminoacylation. Item: CCACAAUUCAAGCAAUCGAUC [Fam1B.1 aminoacylation ribozyme variant] 0.675

Kindly indicate its recorded self-aminoacylation. Item: AUUACGCUGGUCAUCCAGUGA [Fam2.1 aminoacylation ribozyme variant] 4.31

---

# Test system: biotinyl-Trp-oxazolone
# test method notes: self-aminoacylation, catalytic enhancement (BWO) (fold over background); higher = more active; k-Seq, kA / k0A0; sequences stand for … in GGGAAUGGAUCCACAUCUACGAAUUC…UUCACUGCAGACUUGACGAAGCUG
Fewer inactive variants are shown than the library holds.
Threshold check on self-aminoacylation: at or above 2 gives True, strictly below gives False.

// known answers, use as guide
seq text: AUUAACCUGGUCAUCGAGAGA [Fam2.1 aminoacylation ribozyme variant]
experimental target: biotinyl-Trp-oxazolone
label value: False

seq text: AUUCACCUAGGUCAUCGGGAA [Fam2.2 aminoacylation ribozyme variant]
experimental target: biotinyl-Trp-oxazolone
label value: True

seq text: AUUCACCUAGGCCUUCGGGUG [Fam2.2 aminoacylation ribozyme variant]
experimental target: biotinyl-Trp-oxazolone
label value: True

Entry CCACACUUGAAGCAAUCGGUA [Fam1B.1 aminoacylation ribozyme variant] : is its self-aminoacylation no less than 2? False

Entry CCACACGUCAUGCAAUCGGUC [Fam1B.1 aminoacylation ribozyme variant] : is its self-aminoacylation no less than 2? False

---

Each record here notes measured self-aminoacylation.
# Test system: biotinyl-Trp-oxazolone
# test method notes: self-aminoacylation, catalytic enhancement (BWO) (fold over background); higher = more active; k-Seq, kA / k0A0; sequences stand for … in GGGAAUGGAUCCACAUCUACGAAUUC…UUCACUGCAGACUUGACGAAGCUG
This sample holds only a part of the variants without activity.
Please give the numeric answer without any surrounding text.

seq text: CUGCACUUCAAGCAAUCGGUC [Fam1B.1 aminoacylation ribozyme variant]
reported metric: self-aminoacylation
quantitative readout: 28.1
//
seq text: AAGGUUGCUAAUAGUCGCAGG [Fam3.1 aminoacylation ribozyme variant]
reported metric: self-aminoacylation
quantitative readout: 2.28
//
seq text: AUUACCCCGGUCAUCCAGUGA [Fam2.1 aminoacylation ribozyme variant]
reported metric: self-aminoacylation
quantitative readout: 5.63
//
seq text: CCGCACUUCAAGCAAUCGUUC [Fam1B.1 aminoacylation ribozyme variant]
reported metric: self-aminoacylation
quantitative readout: 0.659
//
seq text: AAGUCUGCUAAUAGUCGCCAG [Fam3.1 aminoacylation ribozyme variant]
reported metric: self-aminoacylation
quantitative readout: 3.43
//
seq text: AAUUUUGCUAAUUGUCGCAAG [Fam3.1 aminoacylation ribozyme variant]
reported metric: self-aminoacylation
quantitative readout: 2.21
//
seq text: CUACUUCAAACGAUCGCUCUG [Fam1A.1 aminoacylation ribozyme variant]
reported metric: self-aminoacylation
quantitative readout: 0.678

Moving on to the next sequence.
Kindly indicate its recorded self-aminoacylation. Item: CUACUUCAAACAAUCGGACUG [Fam1A.1 aminoacylation ribozyme variant] 7.87
